Values were extracted from patent US20080090834A1.

pIC50 overview
target: cloned rat PDE10A full-length enzyme (Rattus norvegicus, UniProt Q9QYJ6); construct: cloned rat PDE10A full-length enzyme grown in transfected Sf9 insect cells; assay: PDE10 enzyme inhibition, [3H]cAMP scintillation proximity assay; details: rat PDE10A from Sf9 cells, 20 nM [3H]cAMP, SPA beads, 20 minute incubation at room temperature
Sequence (Q9QYJ6 whole entry): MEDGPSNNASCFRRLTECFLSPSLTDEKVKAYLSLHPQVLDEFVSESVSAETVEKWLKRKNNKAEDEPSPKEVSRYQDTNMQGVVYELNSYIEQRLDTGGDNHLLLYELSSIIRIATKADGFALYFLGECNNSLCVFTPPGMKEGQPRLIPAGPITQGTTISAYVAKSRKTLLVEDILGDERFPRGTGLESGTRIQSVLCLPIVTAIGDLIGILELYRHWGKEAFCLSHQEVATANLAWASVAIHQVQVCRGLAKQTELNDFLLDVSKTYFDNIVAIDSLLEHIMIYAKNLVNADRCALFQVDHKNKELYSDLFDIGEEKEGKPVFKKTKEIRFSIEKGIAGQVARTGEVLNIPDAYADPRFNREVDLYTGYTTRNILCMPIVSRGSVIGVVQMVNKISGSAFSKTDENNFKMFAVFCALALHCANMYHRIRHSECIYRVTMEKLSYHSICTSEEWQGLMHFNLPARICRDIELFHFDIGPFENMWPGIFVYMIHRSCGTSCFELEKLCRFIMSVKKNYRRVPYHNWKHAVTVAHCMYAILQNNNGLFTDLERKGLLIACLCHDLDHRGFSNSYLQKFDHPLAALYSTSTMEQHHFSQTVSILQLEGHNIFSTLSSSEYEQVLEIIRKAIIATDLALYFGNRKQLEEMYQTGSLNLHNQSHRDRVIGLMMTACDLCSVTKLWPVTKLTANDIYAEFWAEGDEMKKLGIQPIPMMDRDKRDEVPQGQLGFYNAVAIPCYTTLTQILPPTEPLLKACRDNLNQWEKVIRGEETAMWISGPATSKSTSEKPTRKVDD
Kindly note that pIC50 refers to -log10 of the concentration in mol/L and answer with the value alone.

Note to self: pIC50 recorded for `Cc1cc(-n2cc(-c3nccn3C)nc2-c2ccc(-n3ccc4cccnc43)cc2)ccn1` was 6.95

Note to self: pIC50 recorded for Cc1cc(-c2nc(-c3cccs3)n(O)c2-c2cnccn2)ccc1-n1ccc2cccnc21 [Example 110] was 7.44

Note to self: pIC50 recorded for `Fc1c(F)c(F)c2c(ccn2-c2ccc(-c3nc(-c4ccccn4)cn3-c3cccnc3)cc2)c1F` was 6.77

Note to self: pIC50 recorded for `CN1CCN(c2ccc(-c3[nH]c(-c4cncs4)nc3-c3ccc(-n4ccc5cccnc54)cc3)cn2)CC1` was 8.65

Note to self: pIC50 recorded for `Cc1ccc(-n2cc(-c3cncs3)nc2-c2ccc(-n3c(C(C)C)nc4cccnc43)cc2)cn1` was 8.71

Note to self: pIC50 recorded for `Cc1ncccc1-n1cc(-c2nccs2)nc1-c1ccc(-n2ccc3cccnc32)cc1` was 7.36

Note to self: pIC50 recorded for `COc1ccc(-n2cc(-c3nccs3)nc2-c2ccc(-n3ccc4cccnc43)cc2)cc1` was 6.81

* * *

biological target: cloned rat PDE10A full-length enzyme (Rattus norvegicus); construct: cloned rat PDE10A full-length enzyme grown in transfected Sf9 insect cells; assay: PDE10 enzyme inhibition, [3H]cAMP scintillation proximity assay; details: rat PDE10A from Sf9 cells, 20 nM [3H]cAMP, SPA beads, 20 minute incubation at room temperature
Structures can show the parent of a compound that is named as a salt.
pIC50 overview
Kindly note that pIC50 refers to -log10 of the concentration in mol/L and answer with the value alone.

Answered examples (5):
Note to self: pIC50 recorded for Cc1cc(-n2cc(-c3ccncc3)nc2-c2ccc(-n3ccc4cccnc43)cc2)ccn1 [Example 69, bis-TFA salt] was 7.05

Note to self: pIC50 recorded for Cc1ccc(-n2cc(-c3ccccn3)nc2-c2ccc(-n3ccc4cccnc43)c(C)c2)cn1 [Example 12] was 7.50

Note to self: pIC50 recorded for Cc1ccc(-n2cc(-c3ccccn3)nc2-c2ccc(-n3cc(C)c4nccnc43)cc2)cn1 [Example 75] was 8.62

Note to self: pIC50 recorded for FC(F)(F)c1ccc(-n2cc(-c3nccs3)nc2-c2ccc(-n3ccc4cccnc43)cc2)cn1 [Example 32] was 8.67

Note to self: pIC50 recorded for c1ccc(-c2cn(-c3cncnc3)c(-c3ccc(-c4ccncc4)cc3)n2)nc1 [Example 73] was 7.13

More entries:
Note to self: pIC50 recorded for Cc1nc(-c2cn(-c3cncnc3)c(-c3ccc(-n4ccc5cccnc54)cc3)n2)sc1C [Example 85] was 7.13

Note to self: pIC50 recorded for CCOc1nc2cccnc2n1-c1ccc(-c2nc(-c3ccccn3)cn2-c2ccc(C)nc2)cc1 [Example 94] was 8.99

Note to self: pIC50 recorded for COc1nc2cccnc2n1-c1ccc(-c2nc(-c3ccccn3)cn2-c2ccc(C)nc2)cc1 [Example 60] was 9.41

Note to self: pIC50 recorded for COc1nc2cccnc2n1-c1ccc(-c2nc(-c3nccs3)cn2-c2ccc(C)nc2)cc1 [Example 81] was 9.48

Note to self: pIC50 recorded for c1ccc(-c2cn(-c3cccnc3)c(-c3ccc(-n4ncc5ccccc54)cc3)n2)nc1 [Example 35] was 7.56

Note to self: pIC50 recorded for Cc1cnc2c(ccn2-c2ccc(-c3nc(-c4ccccn4)cn3-c3ccc(C)nc3)cc2)c1 [Example 22] was 7.92

Note to self: pIC50 recorded for Cc1ccc(-n2cc(-c3ccccn3)nc2-c2ccc(-n3ccc4cc(F)cnc43)cc2)cn1 [Example 21] was 8.55

Note to self: pIC50 recorded for Cc1ccc(-n2cc(-c3ccccn3)nc2-c2ccc(-n3ccc4cncnc43)cc2)cn1 [Example 74] was 8.64

Note to self: pIC50 recorded for Cc1ccc(-n2cc(-c3ccccn3)nc2-c2ccc(-n3ccc4cccnc43)cc2C)cn1 [Example 13] was 7.43

Note to self: pIC50 recorded for c1ccc(-c2nc(-c3cccnc3)n(-c3ccc(-n4ccc5cccnc54)cc3)n2)nc1 [Example 115] was 7.75

Note to self: pIC50 recorded for c1cncc(-n2cc(-c3nc4ccccc4s3)nc2-c2ccc(-n3ccc4cccnc43)cc2)c1 [Example 76] was 6.26
